These data points were gathered from paper PMC8119466.

biological target: recombinant PRL-3 (Homo sapiens, UniProt O75365); construct: 6xHis (N, cleaved yes); made in house; host or cells: E. coli One Shot BL21 Star; assay: In vitro phosphatase assay (DiFMUP hydrolysis), PRL-3; format: biochemical; conditions: FDA-approved drug screen; compared to DMSO; also: test concentration or dose not given here
Sequence (O75365 whole entry): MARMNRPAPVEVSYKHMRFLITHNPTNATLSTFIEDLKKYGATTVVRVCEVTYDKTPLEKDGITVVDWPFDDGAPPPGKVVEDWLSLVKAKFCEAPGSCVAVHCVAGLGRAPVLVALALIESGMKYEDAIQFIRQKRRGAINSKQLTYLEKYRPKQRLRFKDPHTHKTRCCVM
Counter-ions that a name gives are not always drawn.
Measured quantity: % Phosphatase Activity (compared to DMSO) PRL-3 (%)

{"Molecule": "NS(=O)(=O)NCCNc1nonc1/C(=N/O)Nc1ccc(F)c(Br)c1", "Experimental system": "recombinant PRL-3 (Homo sapiens, UniProt O75365)", "Quantitative readout": 95}
{"Molecule": "CNCCC(Oc1ccc(C(F)(F)F)cc1)c1ccccc1.Cl (stereo not drawn) [Fluoxetine HCl]", "Experimental system": "recombinant PRL-3 (Homo sapiens, UniProt O75365)", "Quantitative readout": 68}
{"Molecule": "COc1cccc2c1C(=O)c1c(O)c3c(c(O)c1C2=O)C[C@@](O)(C(=O)CO)C[C@@H]3O[C@H]1C[C@H](N)[C@@H](O)[C@H](C)O1 [Epirubicin HCl]", "Experimental system": "recombinant PRL-3 (Homo sapiens, UniProt O75365)", "Quantitative readout": 58}
{"Molecule": "Clc1ccc(C(Cn2ccnc2)OCc2c(Cl)cccc2Cl)c(Cl)c1 (stereo not drawn) [Isoconazole nitrate]", "Experimental system": "recombinant PRL-3 (Homo sapiens, UniProt O75365)", "Quantitative readout": 89}
{"Molecule": "CS(=O)(=O)OCCCCOS(C)(=O)=O", "Experimental system": "recombinant PRL-3 (Homo sapiens, UniProt O75365)", "Quantitative readout": 79}
{"Molecule": "Nc1ccc(/N=N/c2ccccc2)c(N)n1 [Phenazopyridine HCl]", "Experimental system": "recombinant PRL-3 (Homo sapiens, UniProt O75365)", "Quantitative readout": 55}
{"Molecule": "CCOC(=O)c1ccc(OC(=O)CCCCCN=C(N)N)cc1.CS(=O)(=O)O [Gabexate Mesylate]", "Experimental system": "recombinant PRL-3 (Homo sapiens, UniProt O75365)", "Quantitative readout": 80}
{"Molecule": "CN(C)C(=O)COC(=O)Cc1ccc(OC(=O)c2ccc(NC(=N)N)cc2)cc1 [Camostat Mesilate]", "Experimental system": "recombinant PRL-3 (Homo sapiens, UniProt O75365)", "Quantitative readout": 94}
{"Molecule": "CCCCCCCN(CC)CCCC(O)c1ccc(NS(C)(=O)=O)cc1.CCCCCCCN(CC)CCCC(O)c1ccc(NS(C)(=O)=O)cc1.O=C(O)/C=C/C(=O)O (stereo not drawn) [Ibutilide Fumarate]", "Experimental system": "recombinant PRL-3 (Homo sapiens, UniProt O75365)", "Quantitative readout": 88}
{"Molecule": "CCCCCCc1ccc(O)cc1O", "Experimental system": "recombinant PRL-3 (Homo sapiens, UniProt O75365)", "Quantitative readout": 84}
{"Molecule": "CC(=O)O[C@]1(C(C)=O)CC[C@H]2[C@@H]3C[C@H](C)C4=CC(=O)C=C[C@]4(C)[C@@]3(F)[C@@H](O)C[C@@]21C [Fluorometholone Acetate]", "Experimental system": "recombinant PRL-3 (Homo sapiens, UniProt O75365)", "Quantitative readout": 79}
{"Molecule": "CC(C)(Oc1ccc(C2CC2(Cl)Cl)cc1)C(=O)O (stereo not drawn) [Ciprofibrate]", "Experimental system": "recombinant PRL-3 (Homo sapiens, UniProt O75365)", "Quantitative readout": 88}
{"Molecule": "COc1cc2nc(N3CCN(C(=O)c4ccco4)CC3)nc(N)c2cc1OC [Prazosin HCl]", "Experimental system": "recombinant PRL-3 (Homo sapiens, UniProt O75365)", "Quantitative readout": 263}
{"Molecule": "CCCCCC(=O)O[C@]1(C(C)=O)CC[C@H]2[C@@H]3CCC4=CC(=O)CC[C@]4(C)[C@H]3CC[C@@]21C [Hydroxyprogesterone caproate]", "Experimental system": "recombinant PRL-3 (Homo sapiens, UniProt O75365)", "Quantitative readout": 73}
{"Molecule": "O.O.O.O.O=C([O-])CC(O)(CC(=O)[O-])C(=O)[O-].[Li+].[Li+].[Li+] [Citric acid trilithium salt tetrahydrate]", "Experimental system": "recombinant PRL-3 (Homo sapiens, UniProt O75365)", "Quantitative readout": 89}
